Target: human TLR8 (Homo sapiens, UniProt Q9NR97)
Construct: expressed in transfected cells; host or cells: HEK293 cells, transient transfection with TLR8 plasmid and NFκB-luc plasmid
Sequence (Q9NR97 27-1041): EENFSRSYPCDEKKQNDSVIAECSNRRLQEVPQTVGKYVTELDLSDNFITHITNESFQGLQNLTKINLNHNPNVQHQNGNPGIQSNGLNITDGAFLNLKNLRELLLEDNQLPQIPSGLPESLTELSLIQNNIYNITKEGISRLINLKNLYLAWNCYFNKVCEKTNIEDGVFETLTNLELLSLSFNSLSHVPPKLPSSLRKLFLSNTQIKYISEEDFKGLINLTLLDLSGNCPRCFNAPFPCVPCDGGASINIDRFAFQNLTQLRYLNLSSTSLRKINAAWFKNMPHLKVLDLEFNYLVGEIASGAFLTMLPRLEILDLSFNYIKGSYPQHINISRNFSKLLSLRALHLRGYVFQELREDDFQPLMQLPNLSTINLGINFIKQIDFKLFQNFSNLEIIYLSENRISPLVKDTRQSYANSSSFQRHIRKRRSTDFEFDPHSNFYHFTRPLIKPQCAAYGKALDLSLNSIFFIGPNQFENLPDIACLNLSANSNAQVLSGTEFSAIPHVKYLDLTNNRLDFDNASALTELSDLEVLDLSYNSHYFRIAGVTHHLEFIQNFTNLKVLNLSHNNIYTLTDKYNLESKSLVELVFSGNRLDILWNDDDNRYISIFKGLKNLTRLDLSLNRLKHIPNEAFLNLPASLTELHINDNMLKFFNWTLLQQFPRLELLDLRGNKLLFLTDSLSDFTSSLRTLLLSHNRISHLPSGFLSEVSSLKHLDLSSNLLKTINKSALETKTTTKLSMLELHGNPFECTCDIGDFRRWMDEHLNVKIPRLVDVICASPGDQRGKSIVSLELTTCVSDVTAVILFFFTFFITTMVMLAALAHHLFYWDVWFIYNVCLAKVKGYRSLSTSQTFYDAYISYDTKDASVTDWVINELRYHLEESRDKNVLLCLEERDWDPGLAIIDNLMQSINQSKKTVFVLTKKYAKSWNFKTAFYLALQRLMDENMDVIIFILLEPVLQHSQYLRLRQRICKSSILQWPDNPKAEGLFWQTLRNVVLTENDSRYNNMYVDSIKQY
Test: TLR8 cellular reporter assay (HEK293, NFκB-luc)
Type: cell-based
Conditions: HEK293 cells transfected with CMV-TLR8 and NFκB-luc, 6 hours incubation; lowest effective concentration
observed_property: TLR8 LEC (µM)

(A) CCCCNc1nc(N)nc2ccn(Cc3ncccn3)c12
(B) CCCC[C@@H](CCO)Nc1nc(N)nc2ccn(Cc3ccc(OC)cc3)c12
Kindly identify which of A and B has the larger recorded TLR8 LEC value. Identify your selection by its label. A
